Measured IC50, listed per entry for reference.
Target: Rpn11 (Homo sapiens (Human), UniProt O00487)
Sequence (O00487 whole entry, looked up): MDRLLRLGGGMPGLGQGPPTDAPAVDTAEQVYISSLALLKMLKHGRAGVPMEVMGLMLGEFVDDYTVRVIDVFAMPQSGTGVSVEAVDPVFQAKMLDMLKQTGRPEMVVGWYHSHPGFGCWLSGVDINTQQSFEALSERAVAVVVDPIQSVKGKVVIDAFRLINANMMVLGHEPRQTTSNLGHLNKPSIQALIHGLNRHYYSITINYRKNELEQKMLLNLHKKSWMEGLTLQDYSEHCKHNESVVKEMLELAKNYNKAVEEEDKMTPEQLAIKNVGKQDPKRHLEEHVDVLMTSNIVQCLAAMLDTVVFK
Experiment: Rpn11 activity assay (fluorescence polarization, Ub4-pepOG cleavage by 26S proteasome)
Assay type: biochemical
Details: Table 2; 1 mM DTT in assay reduces disulfides to monomeric active species
Numeric answer only, unit nM assumed.

Worked examples follow.
O=C(NCC1CCCO1)c1cnc2c(SSc3cccc4cc(C(=O)NCC5CCCO5)cnc34)cccc2c1 (stereo not shown) [Compound 6]: 4600
O=C(NCCc1cccs1)c1cnc2c(SSc3cccc4cc(C(=O)NCCc5cccs5)cnc34)cccc2c1 [Compound 11]: 300
O=C(NCc1cccnc1)c1cnc2c(SSc3cccc4cc(C(=O)NCc5cccnc5)cnc34)cccc2c1 [Compound 14]: 3100

Next:
*Q* What value of measured IC50 is listed for O=C(NCCc1cccs1)c1ccnc2c(SSc3cccc4c(C(=O)NCCc5cccs5)ccnc34)cccc12 [Compound 24] ?
*A* 700

These entries and their values trace back to patent US10005735B2.
